- System: L1210 leukemia ip in BDF1 mice, survival T/C
- Experimental protocol: NCI In Vivo Anticancer Drug Screen. Data for tumor model L1210 Leukemia (intraperitoneal) in B6D2F1 (BDF1) mice
- Run parameters: endpoint: mean survival time; dose: 25.0 mg/kg/injection; schedule: Q04DX003 (ip); vehicle: saline; higher = longer survival
Inconclusive results and toxic doses are left out.
Experimental readout: T/C

Worked set:
1) N=C(N)c1ccc(-c2cc(-c3ccc(C(=N)N)cc3)on2)cc1; 108 % of control
2) COC(=O)c1ccc(NCC(C)(C)N)cc1; 104 % of control
3) CNN=C(C)C; 98 % of control
4) CS(=O)(=O)OCCC(=O)N1CCN(C(=O)CCOS(C)(=O)=O)CC1; 108 % of control
5) C=CCOCC(O)CN(C)C1CCCCC1 (stereo not given); 106 % of control
6) Nc1ncnc2c1ncn2CCCCCl; 107 % of control

## Input T/C for CC(C)CCNc1ncnc2c1cnn2C ?
## Output 97 % of control

## Input Let us now turn to C#CCOC(C(=O)OC1CCN(C)CC1)(c1ccccc1)c1ccccc1
## Output 105 % of control

## Input Let us now turn to CCCCCCCCN
## Output 101 % of control

## Input Let us now turn to FC(F)(F)c1ccc2c(c1)N(CCCN1CCN(CCN3CCCCC3)CC1)c1ccccc1S2
## Output 96 % of control

----------
Below, each of the molecules is paired with its reported T/C value.
- System: L1210 leukemia ip in BDF1 mice, survival T/C
- Experimental protocol: NCI In Vivo Anticancer Drug Screen. Data for tumor model L1210 Leukemia (intraperitoneal) in B6D2F1 (BDF1) mice
- Run parameters: endpoint: mean survival time; dose: 200.0 mg/kg/injection; schedule: Q04DX002 (ip); vehicle: saline with Tween-80; higher = longer survival
- Description: The antitumor activity of compounds was measured in mice bearing transplantable tumors. Survival or tumor size were measured and the results are expressed as the measurement made in the treated group (T) divided by the measurement made in the vehicle treated control group (C). The tumor model used in this assay is L1210 Leukemia (intraperitoneal) in B6D2F1 (BDF1) mice
Toxic doses and inconclusive results are not listed.

Worked set:
1. CCCCCCC(O)C(=O)O (stereo not drawn); 102 % of control
2. NC(=S)NNc1ccccc1; 105 % of control
3. CN(C)C1CCC(C=C(C2CCC(CC(=O)O)CC2)C2CCC(CC(=O)O)CC2)CC1 (stereo not drawn); 101 % of control
4. CC1(C)OC2OC(C(O)c3cn(-c4ccccc4)nn3)C(O)C2O1 (stereo not drawn); 93 % of control
5. CC(O)(C(=O)O)C(O)C(O)CO (stereo not drawn); 88 % of control

## Input Find T/C (L1210 leukemia ip in BDF1 mice, survival T/C) for the entry CCOC(=O)C1(C#N)C(=O)CSC1=Nc1ccccc1Cl (stereo not drawn)
## Output 102 % of control

## Input Let us now turn to O=P(CCc1ccccc1)(OCCCl)OCCCl
## Output 96 % of control

## Input Let us now turn to c1ccc2c(c1)ccc1c(C3CO3)cccc12 (stereo not drawn)
## Output 98 % of control

## Input Let us now turn to O=C(CCCCC(=O)NO)NO
## Output 110 % of control

## Input Let us now turn to Cc1cc(Br)cc(C(=O)Cl)c1O
## Output 96 % of control

## Input Let us now turn to Nc1cc(NC(=O)c2ccc(Cl)cc2)ccc1S(=O)(=O)O
## Output 93 % of control

## Input Let us now turn to CC/C=C(\CCC)CCCC
## Output 97 % of control

## Input Let us now turn to O=C(O)C(O)(c1ccccc1)C1CCCCC1 (stereo not drawn)
## Output 105 % of control
